System: DU-145
Assay: NCI tumour cell line growth inhibition, 48 h
Active and inactive are the calls of the source. Rule as the data show it: active = GI50 up to about 1.1 µM and inactive = higher.
measuredMetric: GI50

Request: DU-145 / GI50 / COC(=O)c1ccccc1CC1Cc2cc3c(cc2C1)CCC3 : value?
Result: 40.5 µM (inactive)

Request: DU-145 / GI50 / COC1C(=O)CCC2(CO2)C1(O)C1(C)OC1CC=C(C)C (configuration not stated) : value?
Result: 19.5 µM (inactive)

Request: DU-145 / GI50 / COC(=O)c1cc(/C=C/C(=O)Cc2ccccc2)cn1S(=O)(=O)c1ccccc1 : value?
Result: > 100 µM (inactive)

Request: DU-145 / GI50 / O=C(OCc1ccccc1)C1(N2CN(C3(C(=O)OCc4ccccc4)CCCC3)CN(C3(C(=O)OCc4ccccc4)CCCC3)C2)CCCC1 : value?
Result: > 10 µM (inactive)

Request: DU-145 / GI50 / COC(=O)[C@@H]1CCc2nc3ccccc3c(=O)n21 : value?
Result: > 100 µM (inactive)

Request: DU-145 / GI50 / Cc1ccc(C(=N)Nc2ccccc2)cc1 : value?
Result: > 100 µM (inactive)

Request: DU-145 / GI50 / CSc1ccc(/C=C2\N=C(c3ccccc3)N(NC(=O)c3c(Cl)c(Cl)c(Cl)c(Cl)c3-c3nc4ccccc4[nH]3)C2=O)cc1 : value?
Result: 28.4 µM (inactive)

---

Tested on: SNB-75
Test: NCI tumour cell line growth inhibition, 48 h
Active and inactive are the calls of the source. Cut-off read from the data, not from the text of the source: active = GI50 up to about 1.1 µM and inactive = higher.
measuredMetric: GI50

Request: I would be grateful if you could share the reported GI50 for Cc1ccc(-c2c(C#N)c(-c3ccc(Cl)cc3)c(C#N)c(=O)n2NS(=O)(=O)c2ccccc2)cc1 .
Result: 47.5 µM (inactive)

Request: I would be grateful if you could share the reported GI50 for CC1CC2C3CCC4=CC(=O)C=CC4(C)C3(F)C(O)CC2(C)C1(O)C(=O)CO.Cc1nnc(NS(=O)(=O)c2ccc(/N=N/c3cc(/N=N/c4ccc(S(=O)(=O)Nc5nnc(C)s5)cc4)c4c(NC(=O)C(Cl)Cl)cccc4c3OC(=O)C(Cl)Cl)cc2)s1 .
Result: 37.3 µM (inactive)

Request: I would be grateful if you could share the reported GI50 for O=c1c2cc(Br)ccc2oc2nc3n(c(=O)c12)CCCS3 .
Result: > 100 µM (inactive)

Request: I would be grateful if you could share the reported GI50 for CCOC(=O)/C(C(=O)Nc1cccc(Cl)c1)=C(/N)N1CCCC1 .
Result: > 100 µM (inactive)

Request: I would be grateful if you could share the reported GI50 for COC(=O)c1cc(CC(C)C)c2c(c1)[nH]c1ccccc12 .
Result: 18.2 µM (inactive)

Request: I would be grateful if you could share the reported GI50 for O=C1C2C(C(=O)N1c1ccccc1)C1c3ccccc3C2C2C(=O)N(c3ccccc3)C(=O)C21 (stereo not given) .
Result: 3.73 µM (inactive)

Request: I would be grateful if you could share the reported GI50 for COc1c(/C=C/C=O)cc2c(c1OC)OCO2 .
Result: > 100 µM (inactive)

Request: I would be grateful if you could share the reported GI50 for CCc1nc(N)nc(N)c1-c1ccc(Cl)c(/N=N/N(C)C)c1 .
Result: 61 µM (inactive)

Request: I would be grateful if you could share the reported GI50 for C[C@H]1[C@H](N2CCCC2)O[Si](C(C)(C)C)(C(C)(C)C)[C@@H]1C .
Result: 74.6 µM (inactive)

Request: I would be grateful if you could share the reported GI50 for COc1ccc([C@H]2CC3C(=O)N(c4ccc(OC)cc4)C(=O)C3c3[nH]c4ccccc4c32)cc1 (stereo not given in full) .
Result: 16.1 µM (inactive)

Request: I would be grateful if you could share the reported GI50 for O=c1ccc(=O)c2c(=O)c3ccccc3c(=O)c1=2 .
Result: > 100 µM (inactive)

Request: I would be grateful if you could share the reported GI50 for Cc1cn(C2OC(CO)C(O)C2F)c(=O)[nH]c1=O (stereo not given) .
Result: > 100 µM (inactive)

Request: I would be grateful if you could share the reported GI50 for NCCCCN(CCCN)Cc1ccc2ccccc2c1 .
Result: 2.94 µM (inactive)

Request: I would be grateful if you could share the reported GI50 for CC(=O)C1(Cc2cccc3ccccc23)S(=O)(=O)OCCOS1(=O)=O .
Result: 35.4 µM (inactive)

Request: I would be grateful if you could share the reported GI50 for C/C=C(/C)c1cnc(CC(C)C)c(=O)[nH]1 .
Result: > 100 µM (inactive)

Request: I would be grateful if you could share the reported GI50 for O=Cc1ccc(-c2ccc(-c3ccc(C=O)s3)o2)s1 .
Result: 29.7 µM (inactive)

Request: I would be grateful if you could share the reported GI50 for C=CN(C=C)C(=O)Cn1cc(-c2ccccc2)nn1 .
Result: > 100 µM (inactive)

Request: I would be grateful if you could share the reported GI50 for CCOC(=O)CCC(NC(=O)C(N)c1ccc([N+](=O)[O-])cc1)C(=O)NC(CCC(=O)OCC)C(=O)OCC (stereo not given) .
Result: > 100 µM (inactive)

Request: I would be grateful if you could share the reported GI50 for CC(C)(C)OC(=O)C1=C(O)C(C(=O)OC(C)(C)C)C23CCCCC12C(C(=O)OC(C)(C)C)C(O)=C3C(=O)OC(C)(C)C (stereo not given) .
Result: > 100 µM (inactive)

Request: I would be grateful if you could share the reported GI50 for Nc1nc(N)c2cc(-c3cc4ccccc4[nH]3)ccc2n1 .
Result: 32.4 µM (inactive)

Request: I would be grateful if you could share the reported GI50 for CCC12CCC(O)C1N(C)CCC2Sc1ccccc1 (stereo not given) .
Result: 24.8 µM (inactive)

Request: I would be grateful if you could share the reported GI50 for O=C1CC2=CCCC2O1 (stereo not given) .
Result: > 100 µM (inactive)

Request: I would be grateful if you could share the reported GI50 for CSc1ccc(/C=C2\N=C(c3ccccc3)N(NC(=O)c3c(Cl)c(Cl)c(Cl)c(Cl)c3-c3nc4ccccc4[nH]3)C2=O)cc1 .
Result: 8.3 µM (inactive)

Request: I would be grateful if you could share the reported GI50 for CC(=O)Nc1ccc(C2C(C(=O)Nc3ccccc3)=C(C)NC(C)=C2C(=O)Nc2ccccc2)cc1 .
Result: > 100 µM (inactive)

Request: I would be grateful if you could share the reported GI50 for COc1ccc2c(c1)CN1C(=N2)CSC1c1cccc(Br)c1 (stereo not given) .
Result: 14.9 µM (inactive)

Request: I would be grateful if you could share the reported GI50 for CC1(C)N=C(/C=N/O)C(C)(C)N1O .
Result: > 100 µM (inactive)

Request: I would be grateful if you could share the reported GI50 for COc1ccc(-c2cn3c(nc4ccccc43)c(/C=C/c3cccs3)n2)cc1 .
Result: 52.6 µM (inactive)

Request: I would be grateful if you could share the reported GI50 for O=S1(=O)OCCOS(=O)(=O)C1(Br)Br .
Result: > 100 µM (inactive)

Request: I would be grateful if you could share the reported GI50 for CN1CCc2cc(O)c3cc2C1Cc1ccc(cc1)Oc1cc(ccc1O)CC1c2c(cc4c(c2O3)OCO4)CCN1C (stereo not given) .
Result: 13.4 µM (inactive)

Request: I would be grateful if you could share the reported GI50 for COC(=O)c1cc(/C=C/C(=O)Cc2ccccc2)cn1S(=O)(=O)c1ccccc1 .
Result: > 100 µM (inactive)

Request: I would be grateful if you could share the reported GI50 for O=[N+]([O-])c1nccn1COCCF .
Result: 64.6 µM (inactive)

Request: I would be grateful if you could share the reported GI50 for CC(C)NC(=O)CN1CCN(C2=CC(=O)c3c(O)ccc(O)c3C2=O)CC1 .
Result: 18.2 µM (inactive)

Request: I would be grateful if you could share the reported GI50 for CCNCC(O)c1ccc(N)c([N+](=O)[O-])c1 (stereo not given) .
Result: > 100 µM (inactive)

Request: I would be grateful if you could share the reported GI50 for Cc1cccc(N(CCC#N)S(=O)(=O)c2ccccc2)c1 .
Result: > 100 µM (inactive)

Request: I would be grateful if you could share the reported GI50 for NC1Cc2ccccc2OC1=O (stereo not given) .
Result: > 100 µM (inactive)

Request: I would be grateful if you could share the reported GI50 for C[C@]12CC[C@H](O)CC1=CC[C@@H]1[C@@H]2CC[C@]2(C)C(=O)[C@@H](N3CCOCC3)C[C@@H]12 .
Result: 30.6 µM (inactive)

Request: I would be grateful if you could share the reported GI50 for O=C1C=C(C2=C(C3=CC(=O)c4ccccc4C3=O)C(=O)c3ccccc3C2=O)C(=O)c2ccccc21 .
Result: 9.46 µM (inactive)

Request: I would be grateful if you could share the reported GI50 for O=S1(=O)C(=C(c2ccccc2)c2ccccc2)S(=O)(=O)c2ccccc21 .
Result: 20.2 µM (inactive)

Request: I would be grateful if you could share the reported GI50 for CCOC(=O)NC(NC1=NCCS1)(C(=O)OCC)C(F)(F)F (stereo not given) .
Result: > 100 µM (inactive)

Request: I would be grateful if you could share the reported GI50 for CCCCCCCCCCC/C=C(/C(=O)CCCO[Si](C)(C)C(C)(C)C)C(=O)OC .
Result: > 100 µM (inactive)
